Tested on: field corn (Zea mays L., var. Dekalb 535, CORN)
Test name: Pre-emerge greenhouse screening, crop safety (phytotoxicity rating)
Format: in vivo
Condition context: 250 g ai/ha, 14 days after application
Label scheme for CORN crop damage, phytotoxicity rating (0-100 scale): lower than 8 is Condition not met, 8 and above is Condition met.

Worked examples, 3 compounds total:
- Compound: "Cn1c(=S)n(C)c(=O)n(-c2cc(Oc3ccccc3[N+](=O)[O-])c(Cl)cc2F)c1=O"
  Classification: "Condition not met"
- Compound: "N#Cc1c(-c2cc(Oc3ncccn3)c(Cl)cc2F)nn2c1CCCC2"
  Classification: "Condition not met"
- Compound: "Cn1c(C(F)(F)F)cc(=O)n(-c2cc(Oc3ncccn3)c(Cl)cc2F)c1=S"
  Classification: "Condition met"

Prompt: Textbook exercise: given the entry O=[N+]([O-])c1ccccc1Oc1cc(-c2nn3c(c2Cl)CCCC3)c(F)cc1Cl , state whether its CORN crop damage, phytotoxicity rating (0-100 scale) is greater than or equal to 8.
Response: Condition not met

Prompt: Textbook exercise: given the entry Cn1c(=S)n(C)c(=O)n(-c2cc(Oc3ccccc3N)c(Cl)cc2F)c1=O , state whether its CORN crop damage, phytotoxicity rating (0-100 scale) is greater than or equal to 8.
Response: Condition not met

Prompt: Textbook exercise: given the entry Cn1c(C(F)(F)F)cc(=O)n(-c2cc(Oc3ccccc3C#N)c(Cl)cc2F)c1=S , state whether its CORN crop damage, phytotoxicity rating (0-100 scale) is greater than or equal to 8.
Response: Condition not met

Prompt: Textbook exercise: given the entry Fc1cc(Cl)c(Oc2ncccn2)cc1-c1nn2c(c1Br)CCCC2 , state whether its CORN crop damage, phytotoxicity rating (0-100 scale) is greater than or equal to 8.
Response: Condition met

Prompt: Textbook exercise: given the entry Cn1c(C(F)(F)F)cc(=O)n(-c2cc(Oc3ccccc3N)c(Cl)cc2F)c1=S , state whether its CORN crop damage, phytotoxicity rating (0-100 scale) is greater than or equal to 8.
Response: Condition not met

Prompt: Textbook exercise: given the entry Cn1c(C(F)(F)F)cc(=O)n(-c2cc(Oc3ccccc3O)c(C#N)cc2F)c1=S , state whether its CORN crop damage, phytotoxicity rating (0-100 scale) is greater than or equal to 8.
Response: Condition met

Prompt: Textbook exercise: given the entry Cn1c(=S)n(C)c(=O)n(-c2cc(Oc3ccccc3)c(Cl)cc2F)c1=O , state whether its CORN crop damage, phytotoxicity rating (0-100 scale) is greater than or equal to 8.
Response: Condition not met

Prompt: Textbook exercise: given the entry Cn1nc(-c2cc(Oc3ncccn3)c(Cl)cc2F)c(=O)n(C)c1=S , state whether its CORN crop damage, phytotoxicity rating (0-100 scale) is greater than or equal to 8.
Response: Condition met

Prompt: Textbook exercise: given the entry Cn1nc(-c2cc(Oc3ncccn3)c(Cl)cc2F)c(Cl)c1[S+]([O-])C(F)F (centres unmarked) , state whether its CORN crop damage, phytotoxicity rating (0-100 scale) is greater than or equal to 8.
Response: Condition met

Prompt: Textbook exercise: given the entry Fc1cc(Cl)c(Oc2ncccn2)cc1-c1nn2c(c1Cl)CCCC2 , state whether its CORN crop damage, phytotoxicity rating (0-100 scale) is greater than or equal to 8.
Response: Condition met

Values compiled from patent US6613718B2.
